Catalogue of compounds with associated selectivity ratio
EXPERIMENTAL PROTOCOL: Preventive effect on formation of indomethacin-induced ulcers
Format: in vivo, rat (female Sprague-Dawley)
DETAILS: rat, in vivo, iv; LD50 (mouse, i.v.) / ED50 (ulcer); read-out: Therapeutic Index
Respond numerically, and do not add a unit to the figure.

Check out these entries, answers already filled in.
{"SMILES CODE": "Cc1cccc(Cc2c[nH]cn2)c1", "selectivity ratio": 1900}
{"SMILES CODE": "Clc1cccc(Cl)c1Cc1cnc[nH]1", "selectivity ratio": 1600}
{"SMILES CODE": "CCc1ccccc1Cc1c[nH]cn1", "selectivity ratio": 6800}

For the compound `Cc1cccc(C)c1Cc1cnc[nH]1` , what selectivity ratio is on record?
8000

Also need `Cc1ccccc1Cc1c[nH]cn1` , thanks.
5000

Also need `Cc1ccc(Cc2c[nH]cn2)c(C)c1` , thanks.
2170

----------
Tested on: carrageenan-induced oedema
EXPERIMENTAL PROTOCOL: Inhibition of carrageenan-induced oedema
Type: in vivo, rat
DETAILS: po; 100 mg/kg p.o. in the rat; read-out: inhibition carrageenan-induced oedema (%)
ENDPOINT: inhibition in vivo at 100 mg/kg (%)
Numbers only here, please. The scale is %.

Check out these entries, answers already filled in.
{"MOLECULE": "Cc1ccc(C(=O)c2c[nH]cn2)cc1 [4-(4'-methylbenzoyl)imidazole, 4-(4'-Methylbenzoyl)imidazole]", "inhibition in vivo at 100 mg/kg / %": 40}
{"MOLECULE": "Cc1ccccc1C(O)c1nc[nH]c1C (centres unmarked)", "inhibition in vivo at 100 mg/kg / %": 67}
{"MOLECULE": "Cc1ccccc1C(=O)c1nc[nH]c1C [5-methyl-4-(2'-methylbenzoyl)imidazole, 5-Methyl-4-(2'-methylbenzoyl)imidazole]", "inhibition in vivo at 100 mg/kg / %": 44}
{"MOLECULE": "Cc1cccc(C)c1C(O)c1nc[nH]c1C (centres unmarked)", "inhibition in vivo at 100 mg/kg / %": 52}

Now consider a different molecule.
For the molecule Cc1ccccc1Cc1nc[nH]c1C [5-methyl-4-(2'-methylbenzyl)imidazole, 5-Methyl-4-(2'-methylbenzyl)imidazole] , what inhibition in vivo at 100 mg/kg is on record?
44

----------
EXPERIMENTAL PROTOCOL: Acute toxicity in female NMRI mice, i.v.
DETAILS: in vivo, iv, mouse
Catalogue of molecules with associated LD50
Numbers only here, please. The scale is mg/kg.

Check out these entries, answers already filled in.
{"MOLECULE": "Cc1cccc(Cc2c[nH]cn2)c1", "RECORDED RESULT": 38}
{"MOLECULE": "Cc1ccc(Cc2c[nH]cn2)c(C)c1", "RECORDED RESULT": 65}
{"MOLECULE": "Cc1ccccc1Cc1c[nH]cn1", "RECORDED RESULT": 25}
{"MOLECULE": "Cc1cccc(Cc2c[nH]cn2)c1C", "RECORDED RESULT": 35}
{"MOLECULE": "Clc1cccc(Cl)c1Cc1cnc[nH]1", "RECORDED RESULT": 48}

Now consider a different molecule.
For the molecule Cc1ccccc1C(O)c1c[nH]cn1 (centres unmarked) , what LD50 is on record?
160
